Target: UniProt P42338
Sequence (P42338 whole entry, looked up): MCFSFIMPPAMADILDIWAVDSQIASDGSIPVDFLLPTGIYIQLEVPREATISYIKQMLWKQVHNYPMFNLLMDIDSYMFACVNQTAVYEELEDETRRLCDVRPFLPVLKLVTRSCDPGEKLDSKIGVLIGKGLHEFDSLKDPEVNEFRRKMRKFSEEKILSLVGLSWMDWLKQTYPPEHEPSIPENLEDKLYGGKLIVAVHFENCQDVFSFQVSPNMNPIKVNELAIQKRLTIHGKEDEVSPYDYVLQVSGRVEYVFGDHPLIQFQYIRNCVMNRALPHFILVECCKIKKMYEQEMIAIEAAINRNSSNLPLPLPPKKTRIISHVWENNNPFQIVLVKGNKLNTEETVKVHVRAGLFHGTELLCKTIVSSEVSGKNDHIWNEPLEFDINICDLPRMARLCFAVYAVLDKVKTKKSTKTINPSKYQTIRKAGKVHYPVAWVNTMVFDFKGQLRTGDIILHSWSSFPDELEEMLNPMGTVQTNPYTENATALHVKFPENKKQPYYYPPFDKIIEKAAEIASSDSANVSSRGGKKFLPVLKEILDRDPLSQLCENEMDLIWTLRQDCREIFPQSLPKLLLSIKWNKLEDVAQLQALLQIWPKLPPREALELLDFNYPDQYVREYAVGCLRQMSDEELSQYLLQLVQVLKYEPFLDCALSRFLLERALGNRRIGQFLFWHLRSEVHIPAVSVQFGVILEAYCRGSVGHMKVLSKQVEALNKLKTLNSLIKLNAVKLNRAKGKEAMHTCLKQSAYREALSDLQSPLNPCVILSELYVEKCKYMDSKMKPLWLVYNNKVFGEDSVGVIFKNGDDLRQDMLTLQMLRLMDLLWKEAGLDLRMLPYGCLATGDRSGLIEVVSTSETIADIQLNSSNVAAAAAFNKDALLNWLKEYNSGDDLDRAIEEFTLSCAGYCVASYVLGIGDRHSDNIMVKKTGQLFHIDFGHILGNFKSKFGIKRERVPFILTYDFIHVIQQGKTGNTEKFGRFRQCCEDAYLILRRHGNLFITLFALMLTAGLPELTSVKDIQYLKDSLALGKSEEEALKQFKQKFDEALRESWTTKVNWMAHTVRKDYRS
Assay: Enzyme Assay
QUANTITY KIND: IC50 (nM)
Give bare numbers, in nM.

**Query** So what does the record say about IC50 for C[C@H](Nc1nc(N)nc(N)c1C#N)c1nc2cccc(Cl)c2c(=O)n1C[C@H]1CCCNC1 ?
**Result** 88
